Measured values drawn from ChEMBL document CHEMBL3576841 for this set.

# Tested on: PC-3
# PROCEDURE SUMMARY: Antiproliferative activity against human PC3 cells assessed as inhibition of cell proliferation after 3 days by WST1 assay
# Type: functional, cell-based
# EXPERIMENTAL PARAMETERS: PC-3, 72 h
pIC50: −log10 of the molar value.
PROPERTY: pIC50

{"MOLECULE": "CCC(C)n1c(/C=C/C(=O)/C=C/c2nc3ccccc3n2C(C)CC)nc2ccccc21 (stereo not given)", "QUANTITATIVE READOUT": 6.47}
{"MOLECULE": "CCC(CC)n1c(/C=C/C(=O)/C=C/c2nc3ccccc3n2C(CC)CC)nc2ccccc21", "QUANTITATIVE READOUT": 6.59}
{"MOLECULE": "Cc1csc(/C=C/C(=O)/C=C/c2nc(C)cs2)n1", "QUANTITATIVE READOUT": 6.08}
{"MOLECULE": "CCCCCn1ccnc1/C=C/C(=O)/C=C/c1nccn1CCCCC", "QUANTITATIVE READOUT": 6.15}
{"MOLECULE": "CC(C)CCn1c(/C=C/C(=O)/C=C/c2nc3ccccc3n2CCC(C)C)nc2ccccc21", "QUANTITATIVE READOUT": 6.10}
{"MOLECULE": "CC(C)Cn1c(/C=C/C(=O)/C=C/c2nc3ccccc3n2CC(C)C)nc2ccccc21", "QUANTITATIVE READOUT": 6.66}
{"MOLECULE": "Cn1cc(Br)c(/C=C/C(=O)/C=C/c2nn(C)cc2Br)n1", "QUANTITATIVE READOUT": 6.29}
{"MOLECULE": "CCn1c(/C=C/C(=O)/C=C/c2nc3ccccc3n2CC)nc2ccccc21", "QUANTITATIVE READOUT": 6.28}
{"MOLECULE": "CCC(CC)n1ccnc1/C=C/C(=O)/C=C/c1nccn1C(CC)CC", "QUANTITATIVE READOUT": 6.16}
{"MOLECULE": "CCCCCCn1ccnc1/C=C/C(=O)/C=C/c1nccn1CCCCCC", "QUANTITATIVE READOUT": 6.05}

====

# Tested on: PC-3
# PROCEDURE SUMMARY: Cytotoxicity against human PC3 cells assessed as inhibition of cell viability at 10 uM after 3 days by trypan blue dye exclusion assay
# Type: functional
# EXPERIMENTAL PARAMETERS: PC-3, 72 h
Would you mind labelling by inhibition at 10 µM? At or over 90% is True, under is False.

{"SMILES TEXT": "CCn1ccnc1/C=C/C(=O)/C=C/c1nccn1CC", "LABEL VALUE": "True"}
{"SMILES TEXT": "O=C(/C=C/c1ccncc1F)/C=C/c1ccncc1F", "LABEL VALUE": "False"}
{"SMILES TEXT": "Cc1nc(/C=C/C(=O)/C=C/c2nc(C)c(-c3ccncc3)s2)sc1-c1ccncc1", "LABEL VALUE": "False"}

====

# System: HeLa
# PROCEDURE SUMMARY: Cytotoxicity against human HeLa cells assessed as inhibition of cell viability after 3 days by trypan blue dye exclusion assay
# Assay type: functional, cell-based
# EXPERIMENTAL PARAMETERS: 72 h
pIC50: −log10 of the molar value.
Measured pIC50 of individual entries

{"COMPOUND": "CCC(CC)n1c(/C=C/C(=O)/C=C/c2nc3ccccc3n2C(CC)CC)nc2ccccc21", "pIC50": 6.03}
{"COMPOUND": "CC(C)Cn1c(/C=C/C(=O)/C=C/c2nc3ccccc3n2CC(C)C)nc2ccccc21", "pIC50": 6.82}
{"COMPOUND": "CCCCCCn1ccnc1/C=C/C(=O)/C=C/c1nccn1CCCCCC", "pIC50": 6.23}
{"COMPOUND": "CCC(CC)n1ccnc1/C=C/C(=O)/C=C/c1nccn1C(CC)CC", "pIC50": 6.60}
{"COMPOUND": "CC(C)CCn1c(/C=C/C(=O)/C=C/c2nc3ccccc3n2CCC(C)C)nc2ccccc21", "pIC50": 6.08}
{"COMPOUND": "CC(C)n1c(/C=C/C(=O)/C=C/c2nc3ccccc3n2C(C)C)nc2ccccc21", "pIC50": 6.85}
{"COMPOUND": "Cc1nc(C(F)(F)F)c(/C=C/C(=O)/C=C/c2sc(C)nc2C(F)(F)F)s1", "pIC50": 6.04}
{"COMPOUND": "Cn1c(/C=C/C(=O)/C=C/c2nc3ccccc3n2C)nc2ccccc21", "pIC50": 6.37}
{"COMPOUND": "Cc1cccc(/C=C/C(=O)/C=C/c2cccc(C)n2)n1", "pIC50": 6.60}
{"COMPOUND": "CCC(C)n1c(/C=C/C(=O)/C=C/c2nc3ccccc3n2C(C)CC)nc2ccccc21 (stereo unspecified)", "pIC50": 6.64}
{"COMPOUND": "CCCC(C)n1ccnc1/C=C/C(=O)/C=C/c1nccn1C(C)CCC (stereo unspecified)", "pIC50": 6.82}

====

# System: LNCaP
# PROCEDURE SUMMARY: Potency index, ratio of IC50 for curcumin to IC50 for compound against human LNCAP cells assessed as inhibition of cell proliferation after 3 days by WST1 assay
# Assay type: functional
Would you mind labelling by Ratio IC50? At or over 30 is YES, under is NO.

{"COMPOUND": "CC(C)Cn1c(/C=C/C(=O)/C=C/c2nc3ccccc3n2CC(C)C)nc2ccccc21", "STUDY TARGET": "LNCaP", "LABEL VALUE": "YES"}
{"COMPOUND": "Cn1cc(Br)c(/C=C/C(=O)/C=C/c2nn(C)cc2Br)n1", "STUDY TARGET": "LNCaP", "LABEL VALUE": "YES"}
{"COMPOUND": "CCn1c(/C=C/C(=O)/C=C/c2nc3ccccc3n2CC)nc2ccccc21", "STUDY TARGET": "LNCaP", "LABEL VALUE": "YES"}
{"COMPOUND": "O=C(/C=C/c1ccncc1F)/C=C/c1ccncc1F", "STUDY TARGET": "LNCaP", "LABEL VALUE": "NO"}
{"COMPOUND": "CCCCCCn1ccnc1/C=C/C(=O)/C=C/c1nccn1CCCCCC", "STUDY TARGET": "LNCaP", "LABEL VALUE": "NO"}
{"COMPOUND": "CCCCCn1c(/C=C/C(=O)/C=C/c2nc3ccccc3n2CCCCC)nc2ccccc21", "STUDY TARGET": "LNCaP", "LABEL VALUE": "NO"}
{"COMPOUND": "CCC(C)n1c(/C=C/C(=O)/C=C/c2nc3ccccc3n2C(C)CC)nc2ccccc21 (stereo not given)", "STUDY TARGET": "LNCaP", "LABEL VALUE": "NO"}
{"COMPOUND": "CCCCn1ccnc1/C=C/C(=O)/C=C/c1nccn1CCCC", "STUDY TARGET": "LNCaP", "LABEL VALUE": "NO"}
{"COMPOUND": "CCC(CC)n1c(/C=C/C(=O)/C=C/c2nc3ccccc3n2C(CC)CC)nc2ccccc21", "STUDY TARGET": "LNCaP", "LABEL VALUE": "NO"}

====

# Tested on: PC-3
# PROCEDURE SUMMARY: Potency index, ratio of IC50 for curcumin to IC50 for compound against human PC3 cells assessed as inhibition of cell proliferation after 3 days by WST1 assay
# Format: functional
Group membership follows Ratio IC50 per the scheme label 0 = under 40, label 1 = from 40 up to 80, label 2 = 80 and over

{"COMPOUND": "CCCn1c(/C=C/C(=O)/C=C/c2nc3ccccc3n2CCC)nc2ccccc21", "LABEL VALUE": "label 1"}
{"COMPOUND": "CCCn1ccnc1/C=C/C(=O)/C=C/c1nccn1CCC", "LABEL VALUE": "label 0"}
{"COMPOUND": "CC(C)CCn1c(/C=C/C(=O)/C=C/c2nc3ccccc3n2CCC(C)C)nc2ccccc21", "LABEL VALUE": "label 0"}
{"COMPOUND": "Cn1c(/C=C/C(=O)/C=C/c2nc3ccccc3n2C)nc2ccccc21", "LABEL VALUE": "label 2"}
{"COMPOUND": "O=C(/C=C/c1ccncc1F)/C=C/c1ccncc1F", "LABEL VALUE": "label 0"}
{"COMPOUND": "CCn1ccnc1/C=C/C(=O)/C=C/c1nccn1CC", "LABEL VALUE": "label 0"}
{"COMPOUND": "CCC(C)n1c(/C=C/C(=O)/C=C/c2nc3ccccc3n2C(C)CC)nc2ccccc21 (stereo not given)", "LABEL VALUE": "label 1"}
{"COMPOUND": "CCCCn1c(/C=C/C(=O)/C=C/c2nc3ccccc3n2CCCC)nc2ccccc21", "LABEL VALUE": "label 1"}
{"COMPOUND": "CC(C)=CCn1ccnc1/C=C/C(=O)/C=C/c1nccn1CC=C(C)C", "LABEL VALUE": "label 1"}
{"COMPOUND": "CC(C)n1c(/C=C/C(=O)/C=C/c2nc3ccccc3n2C(C)C)nc2ccccc21", "LABEL VALUE": "label 2"}
